The measurements presented in this section are drawn from patent US20240158370A1.

# target_desc: CK1α (Homo sapiens, UniProt P48729+Q96SW2)
# Construct: CSNK1A1-HiBit KI HEK293(LgBit) Cells; host or cells: HEK293(LgBit) knock-in cells
# Sequence (P48729 whole entry): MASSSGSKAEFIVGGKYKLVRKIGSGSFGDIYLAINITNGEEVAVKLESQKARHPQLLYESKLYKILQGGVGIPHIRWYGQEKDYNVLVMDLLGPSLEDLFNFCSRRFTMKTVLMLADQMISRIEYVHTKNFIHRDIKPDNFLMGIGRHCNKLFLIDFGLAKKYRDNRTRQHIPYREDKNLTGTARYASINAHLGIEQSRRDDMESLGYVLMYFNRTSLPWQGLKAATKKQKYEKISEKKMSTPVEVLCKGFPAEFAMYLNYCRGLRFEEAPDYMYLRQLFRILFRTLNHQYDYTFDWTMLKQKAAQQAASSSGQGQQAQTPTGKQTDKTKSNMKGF
# Sequence (Q96SW2 whole entry): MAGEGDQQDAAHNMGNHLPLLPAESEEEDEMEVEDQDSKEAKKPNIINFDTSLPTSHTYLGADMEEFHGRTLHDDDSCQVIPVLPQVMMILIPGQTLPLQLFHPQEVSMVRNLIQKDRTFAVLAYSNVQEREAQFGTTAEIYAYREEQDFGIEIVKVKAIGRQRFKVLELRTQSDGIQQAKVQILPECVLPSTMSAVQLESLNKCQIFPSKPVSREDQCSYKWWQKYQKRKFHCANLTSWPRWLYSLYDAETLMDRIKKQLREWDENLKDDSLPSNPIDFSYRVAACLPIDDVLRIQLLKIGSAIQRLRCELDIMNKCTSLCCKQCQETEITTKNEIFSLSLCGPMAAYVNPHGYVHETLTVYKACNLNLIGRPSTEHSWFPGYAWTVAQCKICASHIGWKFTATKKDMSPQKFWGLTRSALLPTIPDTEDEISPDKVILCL
# Sequence (Q16531 whole entry partner): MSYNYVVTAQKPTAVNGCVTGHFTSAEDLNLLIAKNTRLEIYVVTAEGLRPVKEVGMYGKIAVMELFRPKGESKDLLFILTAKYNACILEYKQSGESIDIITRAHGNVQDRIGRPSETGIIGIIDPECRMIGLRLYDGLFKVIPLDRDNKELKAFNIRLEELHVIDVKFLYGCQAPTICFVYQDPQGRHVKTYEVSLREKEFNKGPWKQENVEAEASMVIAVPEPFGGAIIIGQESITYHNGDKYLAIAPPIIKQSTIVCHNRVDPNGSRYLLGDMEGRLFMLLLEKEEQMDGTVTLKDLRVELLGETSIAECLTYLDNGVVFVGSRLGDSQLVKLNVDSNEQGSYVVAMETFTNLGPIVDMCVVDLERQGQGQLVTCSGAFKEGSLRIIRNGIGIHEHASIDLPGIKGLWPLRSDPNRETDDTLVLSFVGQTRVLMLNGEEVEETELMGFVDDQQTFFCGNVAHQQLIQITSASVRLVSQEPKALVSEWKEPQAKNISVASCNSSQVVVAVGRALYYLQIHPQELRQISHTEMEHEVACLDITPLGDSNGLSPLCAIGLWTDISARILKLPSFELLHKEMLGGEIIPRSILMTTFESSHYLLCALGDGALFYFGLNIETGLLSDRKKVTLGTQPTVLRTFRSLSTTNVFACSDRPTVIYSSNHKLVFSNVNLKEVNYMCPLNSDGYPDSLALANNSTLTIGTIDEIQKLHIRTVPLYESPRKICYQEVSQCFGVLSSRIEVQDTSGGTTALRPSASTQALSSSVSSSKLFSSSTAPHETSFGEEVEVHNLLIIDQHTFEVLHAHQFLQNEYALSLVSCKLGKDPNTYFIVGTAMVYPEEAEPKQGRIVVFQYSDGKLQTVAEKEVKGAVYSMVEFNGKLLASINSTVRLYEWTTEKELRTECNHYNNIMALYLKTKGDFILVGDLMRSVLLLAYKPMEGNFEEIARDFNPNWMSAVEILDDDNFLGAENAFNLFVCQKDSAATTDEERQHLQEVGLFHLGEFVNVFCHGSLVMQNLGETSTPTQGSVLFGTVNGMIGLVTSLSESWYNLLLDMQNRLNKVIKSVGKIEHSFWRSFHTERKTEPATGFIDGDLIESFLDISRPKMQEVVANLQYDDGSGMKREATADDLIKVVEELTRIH
# assay_notes: HiBiT degradation assay, CK1α, Procedure A
# Type: cell-based
# assay_setup: six hours incubation
Task for the reader: assign each of the following compounds its reported DC50.

{"columns": ["compound", "DC50"],
 "data": [
  ["Cn1ccc(-c2c(-c3ccc4c(c3)CN(C3CCC(=O)NC3=O)C4=O)cnn2C)c1 (stereo not drawn)", "< 25 nM"],
  ["COc1cc(-c2c(-c3ccc4c(c3)CN(C3CCC(=O)NC3=O)C4=O)ncn2C)ccc1C (stereo not drawn)", "< 25 nM"],
  ["Cn1cnc(-c2ccc3c(c2)CN(C2CCC(=O)NC2=O)C3=O)c1-c1cccc(C(C)(C)C)c1 (stereo not drawn)", "≥ 25 nM"],
  ["O=C1CCC(N2Cc3cc(-c4cscc4-c4ccccc4)ccc3C2=O)C(=O)N1 (stereo not drawn)", "≥ 25 nM"],
  ["Cn1ncc(-c2ccc3c(c2)CN(C2CCC(=O)NC2=O)C3=O)c1-c1ccc(CO)cc1 (stereo not drawn)", "≥ 25 nM"],
  ["O=C1CCC(N2Cc3cc(-c4ncn5c4-c4ccccc4C5)ccc3C2=O)C(=O)N1 (stereo not drawn)", "< 25 nM"]
]}

State recorded DC50 for all listed compounds.
1. Cc1cncc(-c2c(-c3ccc4c(c3)CN(C3CCC(=O)NC3=O)C4=O)cnn2C)c1 (stereo not drawn)
2. Cn1cnc(-c2ccc3c(c2)CN(C2CCC(=O)NC2=O)C3=O)c1-c1ccc(F)cc1Cl (stereo not drawn)

1. ≥ 25 nM
2. < 25 nM

Using known records, supply DC50 for Cc1ccc(-c2c(-c3ccc4c(c3)CN(C3CCC(=O)NC3=O)C4=O)cnn2C)cc1F (stereo not drawn)
< 25 nM
